B1: Protein ripply3 (Homo sapiens), P57055 (parent)
chain: MEPEAAAGARKARGRGCHCPGDAPWRPPPPRGPESPAPWRPWIQTPGDAELTRTGRPLEPRADQHTFGSKGAFGFQHPVRVYLPMSKRQEYLRSSGEQVLASFPVQATIDFYDDESTESASEAEEPEEGPPPLHLLPQEVGGRQENGPGGKGRDQGINQGQRSSGGGDHWGEGPLPQGVSSRGGKCSSSK
partner: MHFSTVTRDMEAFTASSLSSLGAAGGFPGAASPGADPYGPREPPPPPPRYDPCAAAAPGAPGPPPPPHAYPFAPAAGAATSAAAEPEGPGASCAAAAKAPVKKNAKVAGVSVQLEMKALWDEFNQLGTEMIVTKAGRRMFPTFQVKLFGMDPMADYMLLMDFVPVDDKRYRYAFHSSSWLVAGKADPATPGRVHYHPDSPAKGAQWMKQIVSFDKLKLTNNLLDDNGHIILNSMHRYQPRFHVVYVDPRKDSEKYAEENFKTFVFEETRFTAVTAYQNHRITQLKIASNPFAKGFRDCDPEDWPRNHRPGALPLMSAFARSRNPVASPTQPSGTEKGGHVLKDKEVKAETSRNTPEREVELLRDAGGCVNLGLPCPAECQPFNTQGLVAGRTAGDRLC

Variants of: B1
testParameters: with tbx1_human TBX1, O43435
parameterMeasured: effect of a mutation on the interaction

P30L	with no effect
D113N	with no effect
V179D	with no effect
